conditions: in n-propanol, 278.15 K
Property measured: solubility (mole fraction)
API doc: respond with a numeric literal and nothing else, no unit.

Which value of solubility (mole fraction) has been reported for "O=C1c2cccc(O)c2C(=O)c2c(O)cc(CO)cc21" in the records? 1.82e-05

* * *

details: in n-butanol, 283.15 K
Property measured: solubility (mole fraction)
API doc: respond with a numeric literal and nothing else, no unit.

Which value of solubility (mole fraction) has been reported for "O=C1c2cccc(O)c2C(=O)c2c(O)cc(CO)cc21" in the records? 5.17e-05

* * *

conditions: in water, 288.15 K
Property measured: solubility (mole fraction)

Which value of solubility (mole fraction) has been reported for "O=C1c2cccc(O)c2C(=O)c2c(O)cc(CO)cc21" in the records? 4.43e-07

* * *

details: in ethanol, 283.15 K
Property measured: solubility (mole fraction)
API doc: respond with a numeric literal and nothing else, no unit.

Which value of solubility (mole fraction) has been reported for "O=C1c2cccc(O)c2C(=O)c2c(O)cc(CO)cc21" in the records? 2.11e-05

* * *

settings: in sec-butanol, 313.15 K
Property measured: solubility (mole fraction)
API doc: respond with a numeric literal and nothing else, no unit.

Which value of solubility (mole fraction) has been reported for "O=C1c2cccc(O)c2C(=O)c2c(O)cc(CO)cc21" in the records? 8.02e-05

* * *

details: in water, 298.15 K
Property measured: solubility (mole fraction)
API doc: respond with a numeric literal and nothing else, no unit.

Which value of solubility (mole fraction) has been reported for "O=C1c2cccc(O)c2C(=O)c2c(O)cc(CO)cc21" in the records? 8.07e-07

* * *

conditions: in methanol, 318.15 K
Property measured: solubility (mole fraction)
API doc: respond with a numeric literal and nothing else, no unit.

Which value of solubility (mole fraction) has been reported for "O=C1c2cccc(O)c2C(=O)c2c(O)cc(CO)cc21" in the records? 2.33e-05

* * *

settings: in sec-butanol, 283.15 K
Property measured: solubility (mole fraction)
API doc: respond with a numeric literal and nothing else, no unit.

Which value of solubility (mole fraction) has been reported for "O=C1c2cccc(O)c2C(=O)c2c(O)cc(CO)cc21" in the records? 2.05e-05

* * *

conditions: in water, 318.15 K
Property measured: solubility (mole fraction)
API doc: respond with a numeric literal and nothing else, no unit.

Which value of solubility (mole fraction) has been reported for "O=C1c2cccc(O)c2C(=O)c2c(O)cc(CO)cc21" in the records? 2.82e-06

* * *

details: in ethanol, 293.15 K
Property measured: solubility (mole fraction)
API doc: respond with a numeric literal and nothing else, no unit.

Which value of solubility (mole fraction) has been reported for "O=C1c2cccc(O)c2C(=O)c2c(O)cc(CO)cc21" in the records? 3.09e-05

* * *

conditions: in n-propanol, 293.15 K
Property measured: solubility (mole fraction)

Which value of solubility (mole fraction) has been reported for "O=C1c2cccc(O)c2C(=O)c2c(O)cc(CO)cc21" in the records? 4e-05

* * *

details: in water, 308.15 K
Property measured: solubility (mole fraction)

Which value of solubility (mole fraction) has been reported for "O=C1c2cccc(O)c2C(=O)c2c(O)cc(CO)cc21" in the records? 1.64e-06

* * *

conditions: in n-pentanol, 293.15 K
Property measured: solubility (mole fraction)
API doc: respond with a numeric literal and nothing else, no unit.

Which value of solubility (mole fraction) has been reported for "O=C1c2cccc(O)c2C(=O)c2c(O)cc(CO)cc21" in the records? 0.000118

* * *

details: in n-pentanol, 278.15 K
Property measured: solubility (mole fraction)
API doc: respond with a numeric literal and nothing else, no unit.

Which value of solubility (mole fraction) has been reported for "O=C1c2cccc(O)c2C(=O)c2c(O)cc(CO)cc21" in the records? 7e-05

* * *

conditions: in sec-butanol, 293.15 K
Property measured: solubility (mole fraction)
API doc: respond with a numeric literal and nothing else, no unit.

Which value of solubility (mole fraction) has been reported for "O=C1c2cccc(O)c2C(=O)c2c(O)cc(CO)cc21" in the records? 3.67e-05

* * *

details: in ethanol, 313.15 K
Property measured: solubility (mole fraction)

Which value of solubility (mole fraction) has been reported for "O=C1c2cccc(O)c2C(=O)c2c(O)cc(CO)cc21" in the records? 6.2e-05

* * *

settings: in sec-butanol, 298.15 K
Property measured: solubility (mole fraction)
API doc: respond with a numeric literal and nothing else, no unit.

Which value of solubility (mole fraction) has been reported for "O=C1c2cccc(O)c2C(=O)c2c(O)cc(CO)cc21" in the records? 4.52e-05

* * *

conditions: in n-butanol, 318.15 K
Property measured: solubility (mole fraction)
API doc: respond with a numeric literal and nothing else, no unit.

Which value of solubility (mole fraction) has been reported for "O=C1c2cccc(O)c2C(=O)c2c(O)cc(CO)cc21" in the records? 0.00016

* * *

conditions: in methanol, 308.15 K
Property measured: solubility (mole fraction)
API doc: respond with a numeric literal and nothing else, no unit.

Which value of solubility (mole fraction) has been reported for "O=C1c2cccc(O)c2C(=O)c2c(O)cc(CO)cc21" in the records? 1.13e-05

* * *

conditions: in methanol, 278.15 K
Property measured: solubility (mole fraction)
API doc: respond with a numeric literal and nothing else, no unit.

Which value of solubility (mole fraction) has been reported for "O=C1c2cccc(O)c2C(=O)c2c(O)cc(CO)cc21" in the records? 1.66e-06

* * *

details: in water, 313.15 K
Property measured: solubility (mole fraction)
API doc: respond with a numeric literal and nothing else, no unit.

Which value of solubility (mole fraction) has been reported for "O=C1c2cccc(O)c2C(=O)c2c(O)cc(CO)cc21" in the records? 2.22e-06

* * *

settings: in n-butanol, 278.15 K
Property measured: solubility (mole fraction)
API doc: respond with a numeric literal and nothing else, no unit.

Which value of solubility (mole fraction) has been reported for "O=C1c2cccc(O)c2C(=O)c2c(O)cc(CO)cc21" in the records? 4.59e-05

* * *

conditions: in sec-butanol, 318.15 K
Property measured: solubility (mole fraction)
API doc: respond with a numeric literal and nothing else, no unit.

Which value of solubility (mole fraction) has been reported for "O=C1c2cccc(O)c2C(=O)c2c(O)cc(CO)cc21" in the records? 9.79e-05

* * *

conditions: in sec-butanol, 303.15 K
Property measured: solubility (mole fraction)
API doc: respond with a numeric literal and nothing else, no unit.

Which value of solubility (mole fraction) has been reported for "O=C1c2cccc(O)c2C(=O)c2c(O)cc(CO)cc21" in the records? 5.44e-05

* * *

details: in ethanol, 318.15 K
Property measured: solubility (mole fraction)
API doc: respond with a numeric literal and nothing else, no unit.

Which value of solubility (mole fraction) has been reported for "O=C1c2cccc(O)c2C(=O)c2c(O)cc(CO)cc21" in the records? 7.56e-05

* * *

conditions: in n-pentanol, 303.15 K
Property measured: solubility (mole fraction)
API doc: respond with a numeric literal and nothing else, no unit.

Which value of solubility (mole fraction) has been reported for "O=C1c2cccc(O)c2C(=O)c2c(O)cc(CO)cc21" in the records? 0.000158

* * *

conditions: in n-butanol, 313.15 K
Property measured: solubility (mole fraction)
API doc: respond with a numeric literal and nothing else, no unit.

Which value of solubility (mole fraction) has been reported for "O=C1c2cccc(O)c2C(=O)c2c(O)cc(CO)cc21" in the records? 0.000137

* * *

conditions: in n-propanol, 298.15 K
Property measured: solubility (mole fraction)

Which value of solubility (mole fraction) has been reported for "O=C1c2cccc(O)c2C(=O)c2c(O)cc(CO)cc21" in the records? 5.26e-05

* * *

settings: in n-pentanol, 313.15 K
Property measured: solubility (mole fraction)
API doc: respond with a numeric literal and nothing else, no unit.

Which value of solubility (mole fraction) has been reported for "O=C1c2cccc(O)c2C(=O)c2c(O)cc(CO)cc21" in the records? 0.000207

* * *

details: in sec-butanol, 308.15 K
Property measured: solubility (mole fraction)
API doc: respond with a numeric literal and nothing else, no unit.

Which value of solubility (mole fraction) has been reported for "O=C1c2cccc(O)c2C(=O)c2c(O)cc(CO)cc21" in the records? 6.76e-05

* * *

settings: in methanol, 298.15 K
Property measured: solubility (mole fraction)

Which value of solubility (mole fraction) has been reported for "O=C1c2cccc(O)c2C(=O)c2c(O)cc(CO)cc21" in the records? 5.39e-06

* * *

conditions: in n-pentanol, 318.15 K
Property measured: solubility (mole fraction)
API doc: respond with a numeric literal and nothing else, no unit.

Which value of solubility (mole fraction) has been reported for "O=C1c2cccc(O)c2C(=O)c2c(O)cc(CO)cc21" in the records? 0.000245

* * *

settings: in methanol, 303.15 K
Property measured: solubility (mole fraction)
API doc: respond with a numeric literal and nothing else, no unit.

Which value of solubility (mole fraction) has been reported for "O=C1c2cccc(O)c2C(=O)c2c(O)cc(CO)cc21" in the records? 7.71e-06
